assay remarks: chemical genetic growth profiling, strain panel (AID 1159580);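 also: tested at 20 µM; growth read once vehicle control cultures reached saturation at 30 °C; 1 = growth at the plate median or of vehicle wells; lower values mean less growth of the strain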
condition details: S. cerevisiae deletion strains, growth OD, locus YHR205W, strain SCH9
Hit rate of the full screen: of about 5,500 compounds, about 2,000 (36%) were called active. Roughly 18% stayed inconclusive and do not appear here. Rule as the data show it: active = normalized growth mostly below about 0.91 (no sharp cut-off); inconclusive = no clear call, values can overlap the other calls; inactive = mostly above about 0.92. The list shows a part of the results.
Possible outcomes: active, inactive

cpd smiles: O=C(NC(=S)Nc1cccc(C(F)(F)F)c1)c1ccc2nonc2c1
group: inactive
//
cpd smiles: O=C(Nc1ccc(C(F)(F)F)cc1)N1CCN(c2ccnc3cc(Cl)ccc23)CC1
group: inactive
//
cpd smiles: C=CCOc1ccc(/C=C/[N+](=O)[O-])cc1
group: active
//
cpd smiles: CC(C)c1ccc(N2C=Nc3ccc(C(C)C)cc3C2)cc1
group: inactive
//
cpd smiles: C/C(=C\c1ccc2c(c1)OCO2)[N+](=O)[O-]
group: active
//
cpd smiles: CC(=O)c1sc(SCCS(=O)(=O)c2ccc(C)cc2)c2c1CC(C)(C)CC2=O
group: inactive
//
cpd smiles: N#CC(C#N)=C/C=C(/Sc1nc2ccccc2s1)c1ccc(Br)cc1
group: active
//
cpd smiles: O=C(NCCSCc1cccc(C(F)(F)F)c1)c1ccc(Cl)cc1
group: inactive
//
cpd smiles: CCCc1c(C(=O)Sc2ccccn2)cnn1-c1ccc(Cl)cc1
group: inactive

---

Parameter normalized growth: see the listing below.
assay remarks: chemical genetic growth profiling, strain panel (AID 1159580)
condition details: S. cerevisiae deletion strains, growth OD, locus YNL233W, strain BNI4, hits give low values
The whole screen tested about 5,500 compounds, of which about 2,000 (36%) were called active. Inconclusive results (about 18%) are left out. The list shows a part of the results.
metric name: normalized growth

compound: CSCCC(NC=O)C(=O)NC(C)C(=O)O (stereo not given)
metric name: normalized growth
measured number: 1.01

compound: CC(C)(C)NCC(O)c1ccccc1Cl (stereo not given)
metric name: normalized growth
measured number: 1.02

compound: Nc1nc2c(ncn2C2C[C@H](O)[C@@H](CO)O2)c(=O)[nH]1 (stereo not given in full)
metric name: normalized growth
measured number: 1

compound: NCCCC[C@H](N[C@@H](CCc1ccccc1)C(=O)O)C(=O)N1CCC[C@H]1C(=O)O
metric name: normalized growth
measured number: 0.975

compound: CC(=O)O[C@@H]1CC2C(C)(C)C=CC(=O)[C@]2(C)C2CC[C@@]3(C)[C@H](c4ccoc4)OC(=O)C4OC43[C@@]21C (stereo not given in full)
metric name: normalized growth
measured number: 1.02

compound: Nc1ccc(S(=O)(=O)Nc2ccccn2)cc1
metric name: normalized growth
measured number: 1

compound: Nc1ccc(S(=O)(=O)Nc2ccc(Cl)nn2)cc1
metric name: normalized growth
measured number: 0.989

compound: COc1cc2c(c(OC)c1OC)-c1ccc(OC)c(=O)cc1[C@@H](NC(C)=O)CC2
metric name: normalized growth
measured number: 1.02

compound: CC1(C)C(O)CC(O)C2(C)C1CC(O)C1(C)C2CCC2(C)C(c3ccoc3)CC3OC321 (stereo not given)
metric name: normalized growth
measured number: 0.978

compound: CC(C)(C)NC[C@@H](O)COc1nsnc1N1CCOCC1
metric name: normalized growth
measured number: 0.973

---

assay remarks: chemical genetic growth profiling, strain panel (AID 1159580);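 also: tested at 20 µM; growth read once vehicle control cultures reached saturation at 30 °C; 1 = growth at the plate median or of vehicle wells; lower values mean less growth of the strain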
condition details: S. cerevisiae deletion strains, growth OD, locus YJL095W, strain BCK1 (second series)
Hit rate of the full screen: of about 5,500 compounds, about 2,000 (36%) were called active. About 18% were inconclusive and are not listed. Cut-off read from the data, not from the text of the source: active = normalized growth mostly below about 0.91 (no sharp cut-off); inconclusive = no clear call, values can overlap the other calls; inactive = mostly above about 0.92. Some of the results follow.
Outcome codes: T = active, F = inactive

compound: C=CC(C1=CC(=O)C(OC)=CC1=O)c1ccccc1 (stereo unspecified)
group: T

compound: O=C(O)CCCCC1CCSS1 (stereo unspecified)
group: F

compound: CN(C)CCOC(C)(c1ccccc1)c1ccccn1 (stereo unspecified)
group: F

compound: CO[C@H]1/C=C/O[C@@]2(C)Oc3c(C)c(O)c4c(O)c(c5c(nc6cc(C)ccn65)c4c3C2=O)NC(=O)/C(C)=C\C=C\[C@H](C)[C@H](O)[C@@H](C)C(O)[C@@H](C)[C@H](OC(C)=O)[C@@H]1C (stereo partly specified)
group: F

compound: C=CC(C1=CC(=O)C(OC)=CC1=O)c1ccc(OC)cc1 (stereo unspecified)
group: T

compound: CNC[C@@H](O)c1ccc(O)c(O)c1
group: F

---

assay remarks: chemical genetic growth profiling, strain panel (AID 1159580);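 also: tested at 20 µM; growth read once vehicle control cultures reached saturation at 30 °C; 1 = growth at the plate median or of vehicle wells; lower values mean less growth of the strain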
condition details: S. cerevisiae deletion strains, growth OD, locus YBL105C, strain PKC1, hits give low values
In all, about 5,500 compounds went through this assay and about 2,000 (36%) were called active. Roughly 18% stayed inconclusive and do not appear here. The list shows a part of the results.

cpd smiles: FC(F)(F)c1cccc(NNC(=S)Nc2ccccc2)c1
normalized growth: 1

cpd smiles: Cc1nn(Cc2ccc(C(=O)Sc3ccc(C(F)(F)F)cn3)o2)c(C)c1Br
normalized growth: 0.966

cpd smiles: O=C(NCc1ccncc1)c1ccc(-n2cccn2)cc1
normalized growth: 0.984

cpd smiles: CC(C)c1ccc(N2C=Nc3ccc(C(C)C)cc3C2)cc1
normalized growth: 0.995

cpd smiles: CC(=O)c1sc(SCCS(=O)(=O)c2ccc(C)cc2)c2c1CC(C)(C)CC2=O
normalized growth: 1.01

cpd smiles: O=S(=O)(N/N=C\c1ccc(Cl)cc1)c1ccc(-c2ccccn2)s1
normalized growth: 0.981

cpd smiles: Fc1cccc(Cl)c1CSc1nncn1-c1ccc(OCc2ccccc2)cc1
normalized growth: 1.01

cpd smiles: S=C(N/N=C\c1ccc(Cl)cc1)N/N=C\c1ccc(Cl)cc1
normalized growth: 0.962

cpd smiles: O=C(Nc1ccc(N2CCOCC2)cc1)c1ccc(-n2cccn2)cc1
normalized growth: 0.982

---

assay remarks: chemical genetic growth profiling, strain panel (AID 1159580);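 also: tested at 20 µM; growth read once vehicle control cultures reached saturation at 30 °C; 1 = growth at the plate median or of vehicle wells; lower values mean less growth of the strain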
condition details: S. cerevisiae deletion strains, growth OD, locus YKR026C, strain gcn3, hits give low values
Hit rate of the full screen: of about 5,500 compounds, about 2,000 (36%) were called active. Roughly 18% stayed inconclusive and do not appear here. This is one part of the list.
Reported normalized growth is given for each of the following compounds.

compound: COC(=O)C[C@H]1C(C)(C)C(=O)[C@@H]2CC3=C4CC(=O)O[C@@H](c5ccoc5)[C@]4(C)CCC3[C@@]1(C)C2=O (some centres not stated)
normalized growth: 0.994 (inactive)
//
compound: CC(=O)O[C@@H]1CC2C(C)(C)C=CC(=O)[C@]2(C)C2CC[C@@]3(C)[C@H](c4ccoc4)OC(=O)C4OC43[C@@]21C (some centres not stated)
normalized growth: 0.996 (inactive)
//
compound: CC(=O)Nc1cc([As](=O)(O)O)ccc1O
normalized growth: 1 (inactive)
//
compound: N[C@@H](Cc1ccc(O)c(O)c1)C(=O)O
normalized growth: 0.989 (inactive)
//
compound: Cc1ccc(/C(=C\CN2CCCC2)c2ccccn2)cc1
normalized growth: 1 (inactive)
//
compound: NCC(O)c1ccc(O)cc1 (configuration not stated)
normalized growth: 0.998 (inactive)
//
compound: O=C1C=CC2=C3c4cc(O)c(O)cc4C[C@@]3(O)COC2=C1
normalized growth: 0.983 (inactive)
//
compound: Nc1ccc(C(=O)NCC(=O)O)cc1
normalized growth: 1.01 (inactive)
//
compound: CCCC(C)C1(CC)C(=O)N=C(S)NC1=O (configuration not stated)
normalized growth: 0.984 (inactive)
//
compound: Nc1ccc([As](=O)(O)O)cc1
normalized growth: 0.997 (inactive)
//
compound: O=c1[nH]c(=O)n(C2C[C@@H](O)[C@@H](CO)O2)cc1F (some centres not stated)
normalized growth: 0.978 (inactive)
//
compound: CN1C(CC(=O)c2ccccc2)CCCC1CC(O)c1ccccc1 (configuration not stated)
normalized growth: 0.977 (inactive)
//
compound: C=CC(C1=CC(=O)C=CC1=O)c1ccccc1 (configuration not stated)
normalized growth: 1.01 (inactive)
//
compound: C1CCN2C[C@@H]3C[C@H](CN4CCCC[C@@H]34)[C@H]2C1
normalized growth: 1.01 (inactive)
//
compound: COc1c2c(cc3c1OCO3)CCN(C)C2
normalized growth: 1.01 (inactive)
//
compound: C/C=C/c1ccc2c(c1)OCO2
normalized growth: 0.997 (inactive)
//
compound: CCCC1O[C@@H]2CC3C4CCC5=CC(=O)C=CC5(C)C4[C@@H](O)CC3(C)[C@]2(C(=O)CO)O1 (some centres not stated)
normalized growth: 1.01 (inactive)
//
compound: CC(C)NCC(O)c1ccc(O)c(O)c1 (configuration not stated)
normalized growth: 0.991 (inactive)
//
compound: C1CCN2CC3CC(CN4CCCCC34)C2C1 (configuration not stated)
normalized growth: 1.02 (inactive)
//
compound: C=C(NC(=O)C(=C)NC(=O)c1csc(C2=NC3c4csc(n4)C4NC(=O)c5csc(n5)C(C(C)(O)C(C)O)NC(=O)C5CSC(=N5)C(=CC)NC(=O)C(C(C)O)NC(=O)c5csc(n5)C3(CC2)NC(=O)C(C)NC(=O)C(=C)NC(=O)C(C)NC(=O)C(C(C)CC)NC2C=Cc3c(C(C)O)cc(nc3C2O)C(=O)OC4C)n1)C(N)=O (configuration not stated)
normalized growth: 0.997 (inactive)
//
compound: CC(C)(C)NC[C@@H](O)COc1nsnc1N1CCOCC1
normalized growth: 1.02 (inactive)
//
compound: COC(C)(C)CCC[C@H](C)C/C=C/C(C)=C/C(=O)OC(C)C
normalized growth: 1.02 (inactive)
